Values were extracted from the supplement of paper PMC10065799.

- target desc: Grb2 SH2 (UniProt P62993)
- assay details: SH2 binding enrichment of the phosphorylated peptide, bacterial display (enrichment ratio); higher = better substrate or ligand; peptides without Tyr show the background
observable: SH2 binding enrichment

| polymer sequence | SH2 binding enrichment |
| --- | --- |
| KTDKKYLMIEE [BAG3_Y451] | 0.762 |
| IGEGTYGQVFK [CDK13_Y716_YF] | 0.774 |
| EWKQNYEESQS [MYH7_Y1460_K1459N] | 0.829 |
| LANNEYYFQVC | 0.93 |
| RGSQQYRALTV [TUBB8_Y281] | 1.04 |
| ECKETYHEGEC [PRKN_Y372_A371T] | 0.884 |
| LNPLIYTLRNA [OR4C46_Y285_K288R] | 0.798 |
| QYPDVYAREEV [CRX_Y67] | 1.05 |
| PDGVEYLKNDP [GRIN3A_Y831] | 0.929 |
| KVITDYFVDMK [MPP4_Y566_YF] | 0.757 |
| DLITAYRAHGF [PDHA1_Y118_H113D] | 0.81 |
| EDAHHYLCKEV [JAK2_Y382_A377E] | 1.08 |
| ILDEAYVMASM [EGFR_Y764_V769M] | 0.66 |
| VHKEGYNKLNQ [ZNF676_Y98] | 0.89 |

* * *

Recorded measurements of phosphorylation enrichment, one per entry
- target desc: Jak2 (UniProt O60674)
- Sequence (O60674 whole entry, looked up): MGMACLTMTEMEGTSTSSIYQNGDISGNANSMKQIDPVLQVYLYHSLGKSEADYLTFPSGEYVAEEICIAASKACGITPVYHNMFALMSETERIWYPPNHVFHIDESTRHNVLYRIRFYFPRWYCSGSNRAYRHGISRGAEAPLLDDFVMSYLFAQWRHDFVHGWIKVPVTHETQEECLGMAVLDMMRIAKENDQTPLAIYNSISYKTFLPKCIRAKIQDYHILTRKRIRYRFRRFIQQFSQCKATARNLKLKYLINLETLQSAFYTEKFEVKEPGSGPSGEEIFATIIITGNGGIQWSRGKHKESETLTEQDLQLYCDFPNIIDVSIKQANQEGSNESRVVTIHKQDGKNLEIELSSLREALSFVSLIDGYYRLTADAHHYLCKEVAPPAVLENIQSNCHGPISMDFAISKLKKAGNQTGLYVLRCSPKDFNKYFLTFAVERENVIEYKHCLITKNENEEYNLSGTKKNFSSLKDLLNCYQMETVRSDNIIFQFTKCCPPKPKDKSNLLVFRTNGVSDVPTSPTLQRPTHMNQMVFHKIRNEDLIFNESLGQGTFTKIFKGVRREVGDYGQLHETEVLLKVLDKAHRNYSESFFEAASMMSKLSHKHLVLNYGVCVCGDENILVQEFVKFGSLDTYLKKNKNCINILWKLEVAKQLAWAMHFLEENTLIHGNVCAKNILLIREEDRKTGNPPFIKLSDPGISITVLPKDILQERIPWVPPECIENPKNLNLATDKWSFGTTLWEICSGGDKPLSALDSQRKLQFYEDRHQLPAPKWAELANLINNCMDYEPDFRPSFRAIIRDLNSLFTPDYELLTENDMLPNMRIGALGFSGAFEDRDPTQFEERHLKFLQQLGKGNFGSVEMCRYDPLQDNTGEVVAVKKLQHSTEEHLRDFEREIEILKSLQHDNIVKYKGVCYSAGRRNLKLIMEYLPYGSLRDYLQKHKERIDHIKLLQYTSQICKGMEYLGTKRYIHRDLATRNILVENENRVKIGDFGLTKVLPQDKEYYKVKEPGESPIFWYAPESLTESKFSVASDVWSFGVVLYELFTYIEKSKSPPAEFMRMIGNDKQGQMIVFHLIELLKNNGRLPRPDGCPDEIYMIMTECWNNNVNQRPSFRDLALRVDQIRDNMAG
- assay details: phosphorylation enrichment, bacterial display (enrichment ratio); higher = better substrate or ligand; peptides without Tyr show the background
Give your answer as a number; write no unit.

See these solved cases before continuing.
| polymer sequence | measured |
| --- | --- |
| SLESAYPEGSQ [TTF1_Y357] | 0.712 |
| LEDEVYAQKMK [TPM2_Y261] | 2.5 |
| VVIVLYFSLWK [SLC6A2_Y249] | 0.64 |
| NTGVYYDLYGG [PTPN11_Y63_D61V] | 2.33 |
| NPPGMYPVTGP [LPP_Y346] | 0.482 |
| YEEDSYVKRSQ [RET_Y905] | 1.09 |
| EQQRAYLEGTC [HLA-C_Y183_L180Q] | 0.93 |
| ITNLLYHVVGG [GBA_Y412_W417G] | 2.67 |

Input line: Quick one: phosphorylation enrichment of EPNSRYTCKLE [USH2A_Y3745_Y3747C] ?
Output line: 0.897

Input line: Query: phosphorylation enrichment; subject: SVVVPYEPPED [TP53_Y220_V225D]
Output line: 1.15

* * *

- target desc: EPHB1 (UniProt P54762)
- Sequence (P54762 whole entry, looked up): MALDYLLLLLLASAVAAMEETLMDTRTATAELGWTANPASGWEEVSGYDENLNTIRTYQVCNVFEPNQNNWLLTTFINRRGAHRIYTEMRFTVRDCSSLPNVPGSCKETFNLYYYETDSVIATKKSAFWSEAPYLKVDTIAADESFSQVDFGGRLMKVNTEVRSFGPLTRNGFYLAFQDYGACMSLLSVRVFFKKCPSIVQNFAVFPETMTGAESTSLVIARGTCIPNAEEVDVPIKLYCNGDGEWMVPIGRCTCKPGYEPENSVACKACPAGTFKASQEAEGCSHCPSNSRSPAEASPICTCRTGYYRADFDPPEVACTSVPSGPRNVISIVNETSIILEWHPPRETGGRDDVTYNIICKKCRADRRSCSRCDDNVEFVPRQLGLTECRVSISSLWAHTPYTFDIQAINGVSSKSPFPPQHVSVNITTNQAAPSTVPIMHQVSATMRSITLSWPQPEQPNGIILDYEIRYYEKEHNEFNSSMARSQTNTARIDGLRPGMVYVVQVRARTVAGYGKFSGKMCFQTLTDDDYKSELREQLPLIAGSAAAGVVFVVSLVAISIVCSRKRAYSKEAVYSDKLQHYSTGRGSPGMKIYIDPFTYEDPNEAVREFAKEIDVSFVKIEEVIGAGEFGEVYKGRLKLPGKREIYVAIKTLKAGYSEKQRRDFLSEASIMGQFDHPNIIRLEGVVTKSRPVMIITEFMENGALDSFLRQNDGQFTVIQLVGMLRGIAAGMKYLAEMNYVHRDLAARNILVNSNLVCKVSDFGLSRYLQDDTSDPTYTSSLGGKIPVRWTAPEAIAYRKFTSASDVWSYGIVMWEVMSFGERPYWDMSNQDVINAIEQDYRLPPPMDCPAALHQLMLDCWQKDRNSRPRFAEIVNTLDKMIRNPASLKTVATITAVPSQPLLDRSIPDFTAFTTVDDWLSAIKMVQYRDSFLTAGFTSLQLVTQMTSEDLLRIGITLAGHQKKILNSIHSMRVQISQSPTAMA
- assay details: phosphorylation enrichment, bacterial display (enrichment ratio); higher = better substrate or ligand; peptides without Tyr show the background
observable: phosphorylation enrichment
Response field accepts a number only; no unit should be typed.

Before answering, review these 5 worked examples.
| polymer sequence | phosphorylation enrichment |
| --- | --- |
| RAEAPYLLVSN [LRIG1_Y1054_Q1053P] | 0.4 |
| PAVGIYNDNIN [CDCP1_Y707] | 0.806 |
| LHQSTYQRYDV [SLC7A14_Y693] | 0.293 |
| NYRPGYNNFYN [USH2A_Y467] | 0.616 |
| RLTEGYTGPFK [ZNF862_Y181_I178T] | 0.323 |

Input line: Need phosphorylation enrichment, item ELTAKYLNYYR [P3H4_Y181_Q186R]
Output line: 0.606

Input line: Given the sequence WHHTFYNELCV [ACTC1_Y93_R97C] , what is its reported phosphorylation enrichment?
Output line: 0.793

Input line: Report phosphorylation enrichment for KERNQYGEVMV [MMP21_Y347] please.
Output line: 0.455

Input line: Give the measured phosphorylation enrichment of GIVEDYRPTFY [ACVRL1_Y421_P424T] .
Output line: 0.561

Input line: Any idea what its phosphorylation enrichment is? The sequence is CTTIHHNYMCN [TP53_Y234_Y234H]
Output line: 0.486

Input line: Need phosphorylation enrichment of GGGGSYNNFGN [HNRNPA1_Y312_D314N] , thanks.
Output line: 0.379

* * *

- target desc: Grb2 SH2 (UniProt P62993)
- assay details: SH2 binding enrichment of the phosphorylated peptide, bacterial display (enrichment ratio); higher = better substrate or ligand; peptides without Tyr show the background
observable: SH2 binding enrichment

Example results:
| polymer sequence | SH2 binding enrichment |
| --- | --- |
| RLLRGYRQDAY [HLA-A_Y137_F133L] | 0.638 |
| SEPDLYFDPRG [PKP1_Y160_C161Y_YF] | 0.9 |
| DFKIIYIVPMR [SNRNP200_Y540_A542V] | 1.67 |
| TEALYYTDDTA [ADPRS_Y75] | 0.912 |
| ERRLIYASDPK [VPS13D_Y864_T865A] | 0.837 |

(1) LARNMYDKEFF [MET_Y1230_D1228N_YF]
(2) PDDPDYSLVDD [PSTPIP2_Y323_N322D]
(3) ITNVLYHVVGW [GBA_Y412_L410V]
(4) CDSSGYWTPEE [PAPPA2_Y908]
Input line: Arrange these 4 sequences in increasing order of SH2 binding enrichment. The reply should contain the labels ordered as requested.
Output line: 1, 2, 4, 3
(1: 0.427, 2: 0.642, 4: 0.967, 3: 1.78)

* * *

- Tested on: Fer (mouse)
- assay details: phosphorylation enrichment, bacterial display (enrichment ratio); higher = better substrate or ligand; peptides without Tyr show the background
observable: phosphorylation enrichment
// no unit, no text: just the number

Below, 5 sequences whose answers are already recorded.
| polymer sequence | target desc | observable | measured |
| --- | --- | --- | --- |
| AAQNCYKVTNA [TPI1_Y105_G110A] | Fer (mouse) | phosphorylation enrichment | 0.354 |
| NVADHYRVYKP [ATP6V0D2_Y271_G272R] | Fer (mouse) | phosphorylation enrichment | 0.433 |
| LANNEYYFQVC | Fer (mouse) | phosphorylation enrichment | 1.11 |
| MTYVFYRENLR [NLRP14_Y443] | Fer (mouse) | phosphorylation enrichment | 0.521 |
| NAGDFYDLFGG [PTPN11_Y63_T59A_YF] | Fer (mouse) | phosphorylation enrichment | 2.43 |

Input line: So what does the record say about phosphorylation enrichment for KRYRIYHLAIS [BRCA2_Y3009_T3013I] ?
Output line: 0.406

Input line: What value of phosphorylation enrichment has been recorded for this entry: YCRHNYGAVES [HLA-DRB1_Y112_V114A]
Output line: 0.514

Input line: # lookup: phosphorylation enrichment of SLIDMYSEVLA [OPA1_Y268_D273A]
Output line: 0.891

Input line: # phosphorylation enrichment lookup, item CTTIHYNFMHN [TP53_Y234_C238H_YF]
Output line: 0.463

Input line: Tell me the measured phosphorylation enrichment of LQEQNYPAVDS [FAM114A1_Y115_L116P] , please.
Output line: 0.878

Input line: # input sequence: ATPKGYEPDAS [OTC_Y223] ; wanted: its phosphorylation enrichment
Output line: 0.508

Input line: Report phosphorylation enrichment for HLPAGYIIPLQ [GAA_Y822_R819P] please.
Output line: 0.297

Input line: May I ask what phosphorylation enrichment has been recorded for EESREYDRLFE [PIK3R1_Y463_K459E_YF] ?
Output line: 0.599

Input line: What does the data say about its phosphorylation enrichment? Entry: VEYAKYGSLQG [RET_Y809_R813Q]
Output line: 0.458

* * *

- Test system: c-Abl (mouse)
- assay details: phosphorylation enrichment, bacterial display (enrichment ratio); higher = better substrate or ligand; peptides without Tyr show the background
phosphorylation enrichment listing for selected sequences.
Give the figure only, with no unit attached.

Input line: What phosphorylation enrichment value was documented for this sequence, RQIQSYTCEID [DES_Y331_H326R] ?
Output line: 0.817

Input line: Which phosphorylation enrichment value is on record for VFDMLYQLANL [USP24_Y1087] ?
Output line: 0.945

Input line: Entry under review: VDTLWYKFLKR [EPM2A_Y86_F84L] . Reported phosphorylation enrichment?
Output line: 0.68

Input line: Need phosphorylation enrichment of SEDSEYYRAFE [CASQ2_Y178_K180R] , thanks.
Output line: 0.89

Input line: Data request, read-out phosphorylation enrichment, for `SKDSAYVTWEP`
Output line: 0.702

Input line: Quick one: phosphorylation enrichment of DEENFYQGSME [ASCC1_Y36_D34N] ?
Output line: 0.821

Input line: Please report the recorded phosphorylation enrichment for QMVGMYASSYM [AVPR2_Y124] .
Output line: 0.921

Input line: GET /values?readout=phosphorylation enrichment&item= LAETSYVTVLE [MAGEA1_Y276_K278T]
Output line: 0.903

Input line: Entry GETEQYVGGGG [FAT4_Y4980_A4977T] : reported phosphorylation enrichment = ?
Output line: 0.624

Input line: Item under review: RTTIHYNFMCN [TP53_Y234_C229R_YF] . Reported phosphorylation enrichment?
Output line: 2.01

Input line: Consider the sequence GVLDIYGFEIL [MYO1A_Y382] and give its measured phosphorylation enrichment.
Output line: 0.695

Input line: // returns reported phosphorylation enrichment for input SEPDLYFDPRG [PKP1_Y160_C161Y_YF]
Output line: 2.71

Input line: Which phosphorylation enrichment reading was recorded for the sequence IALSKYGRVKR [FGF6_Y186] ?
Output line: 0.552

Input line: Reported phosphorylation enrichment for IRTIDYRYTVW [IDS_Y497] : what is it?
Output line: 0.695
